This section presents molecules with their documented inhibition values.
assay: inhibitors of the yeast RAM network, pilot screen, dse1pr::URA3 reporter, 5-FOA selection (AID 869);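 further: 0% = DMSO wells with no growth and 100% = 10 µM 1-NA-PP1 with full growth; RAM network block rescues cells from 5-FOA so hits raise OD615 growth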; conditions: S. cerevisiae dse1pr::URA3 5-FOA growth, OD615, 2 d; at 10 µM; hits give high values; strain carries analog-sensitive mutant Cbk1 kinase
MEASURED_PROPERTY: inhibition (%)

>>> endpoint_result("CC(C)NC(=O)C1CCCN(c2nnc(-n3cccc3)s2)C1 (stereo unspecified)")
-0.455
>>> endpoint_result("Cn1c(Cn2c(=O)sc3ccccc32)nnc1SCC(=O)N1CCc2ccccc21")
2.98
>>> endpoint_result("Cc1cccc(C2Nc3ccccc3C(=O)N2c2ccccc2)n1 (stereo unspecified)")
2.28
>>> endpoint_result("CCOC(=O)CCc1c(C)n(CC)c2ncnn2c1=O")
0.735
>>> endpoint_result("CCc1ccccc1NC1c2ccccc2C(=O)N1c1cc(C)ccn1 (stereo unspecified)")
1.82
>>> endpoint_result("Nc1ccccc1SCc1cn2cccnc2n1")
2.13
>>> endpoint_result("O=C(NCCN1CCOCC1)c1ccc(CS(=O)(=O)c2ccc(Br)cc2)o1")
1.31
>>> endpoint_result("CCC(Sc1nc2ccccc2[nH]1)C(=O)Nc1cc(C)on1 (stereo unspecified)")
1.1
>>> endpoint_result("Cn1c(C(=O)Nc2ccc3c(c2)OCCO3)cc2c(=O)n(C)c3ccccc3c21")
1.94
>>> endpoint_result("O=C(CCc1nc2ccccc2[nH]1)NCc1ccc2c(c1)OCO2")
2.1
>>> endpoint_result("Cc1csc2nc(CNS(=O)(=O)N(C)C)cn12")
0.875

###

experiment: RAM signaling pathway blockade in yeast – S. cerevisiae, Pdr1DBD-CYC8 efflux-inhibited sensitized strain, primary screen (AID 1298);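 further: 0% = DMSO untreated cells without growth and 100% = 10 µM 1-NA-PP1 full growth; higher means more yeast growth rescued from 5-FOA killing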; settings: S. cerevisiae cbk1-as DSE1-URA3 strain, 5-FOA growth OD615, 2 d; at 50 µM; hits give high values
// reported RAM network inhibition per item
MEASURED_PROPERTY: RAM network inhibition (%)

>>> endpoint_result("CCn1c(C)nc2cc(S(=O)(=O)N3CCCC3)ccc21")
2.71
>>> endpoint_result("Cn1c(=O)[nH]c(=O)c2c1nc(CN1CCN(c3cccc(Cl)c3)CC1)n2Cc1ccccc1Cl")
4.08
>>> endpoint_result("Cc1occc1C(=O)NCc1ccc2c(c1)OCO2")
1.93
>>> endpoint_result("CCCC(=O)NCCCCNC(=O)CCC")
4.07
>>> endpoint_result("Cc1cc(OCC(=O)N(C)C)c2c(-c3ccccc3)cc(=O)oc2c1")
5.21
>>> endpoint_result("Cc1nc(N2CCN(C(=O)c3ccco3)CC2)c2c3c(sc2n1)CCC3")
5
>>> endpoint_result("COc1ccc(N2CC(C(=O)NC3CC(C)(C)NC(C)(C)C3)CC2=O)cc1 (configuration not stated)")
2.14
>>> endpoint_result("COc1ccc(NC(=O)N(Cc2cccnc2)Cc2ccccc2Cl)c(OC)c1")
-0.05
>>> endpoint_result("COc1ccc(CN2C(=O)CCC2(C)C(=O)NC2CCCC2)c(OC)c1 (configuration not stated)")
2.04
>>> endpoint_result("CCOc1ccc(-n2c(Cc3cc(=O)[nH]c(=O)[nH]3)nnc2SCC(=O)NC2CCCC2)cc1")
-0.37
>>> endpoint_result("COc1cccc(C2c3c(oc4cc(C)c(C)cc4c3=O)C(=O)N2CCCN(C)C)c1 (configuration not stated)")
1.83
>>> endpoint_result("CCCCn1c2nc3ccccc3nc2c2c(=N)oc(C)nc21")
0.62
>>> endpoint_result("COC(=O)c1c(NC(=O)CSc2nnnn2-c2ccccc2)sc2c1CCC(C)C2 (configuration not stated)")
10.1
>>> endpoint_result("Cn1c(=O)c2c(nc(CN3CCN(C(=O)c4ccco4)CC3)n2Cc2ccccc2F)n(C)c1=O")
3.22
>>> endpoint_result("COc1ccc(Cl)cc1N(CC(=O)Nc1ccc2c(c1)OCCO2)S(C)(=O)=O")
2.8
>>> endpoint_result("Cc1cc(C(=O)NCc2ccc3c(c2)OCO3)n(-c2ccccc2)n1")
4.44
>>> endpoint_result("CCCCOC(=O)CCc1n[nH]c(=O)[nH]c1=O")
2.93
>>> endpoint_result("CC(C)OC(=O)CSc1nnc(-c2ccncc2)n1N")
3.83
>>> endpoint_result("CCOC(=O)c1oc2cc(O)ccc2c(=O)c1-c1ccccc1OC")
5.56
>>> endpoint_result("O=C(NC1CCN(Cc2ccccc2)CC1)C1CCCN(c2nnc(-n3cccc3)s2)C1 (configuration not stated)")
0.11
>>> endpoint_result("Cn1c(Cn2c(=O)sc3ccccc32)nnc1SCC(=O)NCc1ccc(F)cc1")
2.63
>>> endpoint_result("CCn1cc(C2=NC(c3ccccc3)CO2)c2ccccc21 (configuration not stated)")
0.69
